Hello, the source for this data is the supplement of paper PMC10065799, in case you need it.

Below: a set of entries, each annotated with reported phosphorylation enrichment.
Molecular target: Hck (UniProt P08631)
Sequence (P08631 whole entry, looked up): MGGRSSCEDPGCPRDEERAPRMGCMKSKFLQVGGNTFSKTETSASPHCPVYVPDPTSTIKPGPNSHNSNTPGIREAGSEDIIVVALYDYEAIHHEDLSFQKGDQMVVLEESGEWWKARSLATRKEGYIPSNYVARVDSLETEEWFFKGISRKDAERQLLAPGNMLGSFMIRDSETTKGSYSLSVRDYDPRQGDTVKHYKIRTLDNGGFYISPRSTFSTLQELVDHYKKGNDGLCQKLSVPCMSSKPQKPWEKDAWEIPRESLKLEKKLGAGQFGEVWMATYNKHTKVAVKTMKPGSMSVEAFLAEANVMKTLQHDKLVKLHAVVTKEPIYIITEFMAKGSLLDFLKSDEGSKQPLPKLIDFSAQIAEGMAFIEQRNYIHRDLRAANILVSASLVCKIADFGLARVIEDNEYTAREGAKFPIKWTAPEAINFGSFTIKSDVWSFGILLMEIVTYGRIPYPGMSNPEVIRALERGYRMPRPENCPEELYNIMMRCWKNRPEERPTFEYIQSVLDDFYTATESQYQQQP
Experiment: phosphorylation enrichment, bacterial display (enrichment ratio); higher = better substrate or ligand; peptides without Tyr show the background;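 further: 11-residue human phosphosite peptides and single-mutation variants displayed on the E. coli surface, counted by deep sequencing, each peptide's frequency after selection divided by its frequency in the unselected input library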;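 further: frequency after pTyr selection over input frequency; kinase dosed for 20-30% of maximal phosphorylation in three min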
readout.kind: phosphorylation enrichment

>>> numeric_result("VGTTAYMAPEA [IRAK4_Y354]")
0.434
>>> numeric_result("RRYLYYYSYLL [PTEN_Y177_V175L]")
1.17
>>> numeric_result("GRRGQYVMLSE [TTC7A_Y396]")
0.512
>>> numeric_result("KWRGQYDVAIK [BTK_Y425]")
0.479
>>> numeric_result("EADRKYEEVAH [TPM3_Y163_R168H]")
0.531
>>> numeric_result("RRIYSYRGHLW [VHL_Y112_H110Y]")
0.667
>>> numeric_result("SDVDLYQVRIA [PSMD9_Y70_T74I]")
4.07

* * *

Target: Hck (UniProt P08631)
Assay: phosphorylation enrichment, bacterial display (enrichment ratio); higher = better substrate or ligand; peptides without Tyr show the background
Note to self: values exactly at 0.6 are yes. So phosphorylation enrichment at or above 0.6 is yes, below is no.

>>> group("KYVVVYFREID [IL17RB_Y447]")
"no"
>>> group("ATHRSYDSDNP [MMUT_Y146_G145S]")
"no"
>>> group("RLKAKYPAATG [GLI3_Y933_A934P]")
"yes"
>>> group("HEKRAYICAHP [ACAD9_Y611_L606H]")
"no"
>>> group("KDFTIHNPNLL [VANGL1_Y290_Y290H]")
"no"
>>> group("SKEPYYVRCIK [MYO1D_Y586]")
"no"
>>> group("LIGRGYDDPEV [HSPA9_Y128_R127G]")
"yes"
>>> group("FIPFRYPKEFQ [IDS_Y234_H229Y_YF]")
"no"
>>> group("LKFAIYFEARE [LAMA2_Y1258_YF]")
"yes"
>>> group("KKGIVYVFNGR [ITGAV_Y404_I405V]")
"no"
>>> group("HLWRIYFDITD [MMP27_Y307_YF]")
"yes"
>>> group("PRARTYCYKQE [KLHDC9_Y175_S171R]")
"no"
>>> group("DDKEFYSVHNK [MET_Y1235_Y1230D_YF]")
"no"
>>> group("ISKTWYSAEQF [CD207_Y217_P213S]")
"no"
>>> group("TKDTFYKQPMF [GBA_Y451]")
"no"
>>> group("RPGGRYPVARR [SHANK3_Y1569_S1566G]")
"yes"
>>> group("KRISCYEARFQ [PFKFB3_Y194_S197R_YF]")
"no"
>>> group("ISHVAYLVLGK [TRRAP_Y892_R893L]")
"no"
>>> group("SRASYYRKGGC [ALK_Y1283_Y1278S]")
"no"
>>> group("LNLKDYNLVGG [GNAQ_Y356_E355D]")
"no"
>>> group("IIRRLYLKWHP [SACS_Y4333]")
"no"
>>> group("VNCHQYDGLVE [ATP2A2_Y407]")
"yes"
>>> group("EKSREYHRLYE [PIK3R1_Y463_D464H]")
"no"
>>> group("RKKEEYKMAPY [F8_Y1990_L1994P]")
"yes"
>>> group("LKYAIYFEVRE [LAMA2_Y1258_A1261V]")
"yes"
>>> group("AHAGEYGAEAL [HBA1_Y25]")
"no"
>>> group("LLASRYDSPIN [ABLIM1_Y638]")
"yes"
